The entries below come with measured LogIC50 values attached.
SYSTEM_NAME: alpha-amylase from porcine pancreas (Sus scrofa)
Sequence (P00690 16-511): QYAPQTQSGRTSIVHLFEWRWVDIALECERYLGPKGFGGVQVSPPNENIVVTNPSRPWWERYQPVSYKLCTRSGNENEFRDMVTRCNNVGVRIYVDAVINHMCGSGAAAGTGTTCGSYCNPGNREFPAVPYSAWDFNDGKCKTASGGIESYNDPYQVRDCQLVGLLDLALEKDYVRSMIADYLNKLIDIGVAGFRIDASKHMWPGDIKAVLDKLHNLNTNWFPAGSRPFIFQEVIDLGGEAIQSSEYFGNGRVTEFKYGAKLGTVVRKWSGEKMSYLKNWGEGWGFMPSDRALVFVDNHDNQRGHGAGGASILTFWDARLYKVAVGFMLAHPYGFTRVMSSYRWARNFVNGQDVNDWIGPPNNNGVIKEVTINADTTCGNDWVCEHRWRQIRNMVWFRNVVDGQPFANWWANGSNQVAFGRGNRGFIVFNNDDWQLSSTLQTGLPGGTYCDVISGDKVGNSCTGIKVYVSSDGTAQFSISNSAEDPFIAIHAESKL
EXPERIMENT_NOTES: alpha-amylase inhibition assay (DNSA method)
Assay type: biochemical
STUDY_CONDITIONS: isolated compounds and acarbose; log of IC50 in uM
Give a plain numeric answer without units written out.

// worked examples, LogIC50 included
{"COMPOUND": "CC(O)[C@H]1CC[C@@]2(O)[C@]1(C)[C@H](O)[C@@H](O)[C@@H]1[C@@]3(C)CC[C@H](O)CC3=CC[C@]12O (stereo partly shown) [P1, marsectohexol]", "LogIC50": 1.000}
{"COMPOUND": "COC1C(O)C(C)OC(OC2C(O)CC(OC3CCC4(C)C(=CCC5(O)C4C(O)C(O)C4(C)C(C(C)=O)CCC54O)C3)OC2C)C1O (stereo not shown)", "LogIC50": 1.137}
{"COMPOUND": "COC1CC(OC2CCC3(C)C(=CCC4(O)C3C(O)C(O)C3(C)C(C(C)=O)CCC43O)C2)OC(C)C1OC1OC(C)C(O)C(OC)C1O (stereo not shown)", "LogIC50": 1.147}

Next up:
Record CC=C(C)C(=O)OC1C2C3(C)CCC(OC4CC(OC)C(OC5OC(C)C(O)C(OC)C5O)C(C)O4)CC3=CCC2(O)C2(O)CCC(C(C)=O)C2(C)C1OC(=O)C(C)=CC (stereo not shown) [P2] , field LogIC50: 1.083
